PROTOCOL_SUMMARY: physchem
SETUP_CONDITIONS: octan-1-ol/water, pH 7.4, LogD7.4
METRIC: logD
Please give only the number in your answer, with no unit.

The value of logD measured for the compound `CC(=O)N1CCN(CCOc2cc(OC(C)C)c3c(Nc4c(F)ccc5c4OCO5)ncnc3c2)CC1` turned out to be 3.06

The value of logD measured for the compound `Cc1cc(-c2ccc(N3C[C@H](Cn4ccnn4)OC3=O)cc2F)on1` turned out to be 1.99

The value of logD measured for the compound `O=C1c2ccc(O)cc2C(=O)N1c1cccc(O)c1` turned out to be 2

====

PROTOCOL_SUMMARY: physchem
SETUP_CONDITIONS: octan-1-ol/water, pH 7.4, LogD7.4
METRIC: logD
Please give only the number in your answer, with no unit.

The value of logD measured for the compound `Cc1ccc2nc(NCCN)c3ncc(C)n3c2c1` turned out to be 0.88

The value of logD measured for the compound `Cn1c(=O)n(Cc2ccc(C(=O)O)cc2)c(=O)c2cc(C#CCc3ccccc3)ccc21` turned out to be 2.5

The value of logD measured for the compound `NC(=O)c1c(N)sc2c1CCCC2` turned out to be 1.84

The value of logD measured for the compound `O=C1c2ccccc2CN1C1CCN(CCC(c2ccccc2)c2ccccc2)CC1` turned out to be 4.1

The value of logD measured for the compound `CN[C@@H](C)C(=O)N[C@H](C(=O)N[C@H]1CCCN(CCc2cccc(OC)c2)C1)C(C)(C)C` turned out to be 1.47

The value of logD measured for the compound `O=c1c2ccccc2nc2n1CCO2` turned out to be 0.6

The value of logD measured for the compound `NC1(c2ccc(-c3nc4ccn5c(=O)[nH]nc5c4cc3-c3ccccc3)cc2)CCC1` turned out to be 2.5

The value of logD measured for the compound `CN[C@H]1CC[C@@H](c2ccc(Cl)c(Cl)c2)c2ccccc21` turned out to be 3.15

The value of logD measured for the compound `CSc1ncccc1C(=O)NCc1ccc(C)cc1` turned out to be 2.71

The value of logD measured for the compound Cn1c(=O)c2c(ncn2CC(O)CO)n(C)c1=O (configuration not stated) turned out to be -1.25

The value of logD measured for the compound `Cc1ccc(S(=O)(=O)Nc2c(C(=O)NCC(C)(C)C)c(C)nn2-c2ccccc2)cc1` turned out to be 1.46

The value of logD measured for the compound `CC1(c2ccc(Cl)cc2)CCN(C(=O)COCc2ccncc2)CC1` turned out to be 2.79

====

PROTOCOL_SUMMARY: in vitro
SETUP_CONDITIONS: Beagle, dog, plasma
fraction unbound at 5 h of 0.05 or higher: 1. Under 0.05: -1.

Confirm if fraction unbound at 5 h reported for the compound `CC(C)Cn1c(=O)n(C)c(=O)c2c(SCCCO)n(Cc3cccc4ccccc34)cc21` is 0.05 or above.
-1

Confirm if fraction unbound at 5 h reported for the compound `CCOc1cc2ncc(C(N)=O)c(Nc3cccc(Cl)c3F)c2cc1N1CCN(C)CC1` is 0.05 or above.
1

Confirm if fraction unbound at 5 h reported for the compound `C[C@H](CO)Nc1nc(SCc2cccc(F)c2F)nc2[nH]c(=O)cnc12` is 0.05 or above.
-1

Confirm if fraction unbound at 5 h reported for the compound `CCOc1cc2ncc(C(N)=O)c(Nc3ccc(C)cc3F)c2cc1N1CCN(C)CC1` is 0.05 or above.
1

Confirm if fraction unbound at 5 h reported for the compound `Cc1c(OC2CCN(CC3CCN([C@@](C)(Cc4ccc(F)cc4)C(=O)O)CC3)CC2)ccc(Cl)c1Cl` is 0.05 or above.
1

Confirm if fraction unbound at 5 h reported for the compound `O=C(O)COc1ccc(Cl)cc1CN1CCN(S(=O)(=O)Cc2ccccc2)CC1` is 0.05 or above.
-1

Confirm if fraction unbound at 5 h reported for the compound `CC(C)(C)NC(=O)NCCN1CCC(O)(CNC(=O)c2cc(Cl)cc(Cl)c2)CC1` is 0.05 or above.
1

Confirm if fraction unbound at 5 h reported for the compound `CCC(CC)NC(=O)c1c(C)nn(-c2ccccc2)c1NS(=O)(=O)c1ccc(C)cc1` is 0.05 or above.
-1

Confirm if fraction unbound at 5 h reported for the compound `CCCCC1=NC2(CCCC2)C(=O)N1Cc1ccc(-c2ccccc2-c2nnn[nH]2)cc1` is 0.05 or above.
-1

Confirm if fraction unbound at 5 h reported for the compound `COc1nc(Br)cnc1NS(=O)(=O)c1ccc(Cl)s1` is 0.05 or above.
-1

Confirm if fraction unbound at 5 h reported for the compound `N#Cc1ccc(C(F)(F)F)nc1O[C@H](CCN)c1ccno1` is 0.05 or above.
1

Confirm if fraction unbound at 5 h reported for the compound `O=C(NCC12CC3CC(CC(C3)C1)C2)c1cc(CN2CCNCC2)ccc1Cl` is 0.05 or above.
1

Confirm if fraction unbound at 5 h reported for the compound `CCOc1cc2ncc(C(N)=O)c(Nc3cc(C)ccc3F)c2cc1N1CCN(C)CC1` is 0.05 or above.
1

Confirm if fraction unbound at 5 h reported for the compound `O=C(c1ccc(OCCN2CCCCC2)cc1)c1c(-c2ccc(O)cc2)sc2cc(O)ccc12` is 0.05 or above.
-1

Confirm if fraction unbound at 5 h reported for the compound `O=C(O)COc1ccc(Cl)cc1CN1CCN(S(=O)(=O)c2ccc(F)cc2)CC1` is 0.05 or above.
1

Confirm if fraction unbound at 5 h reported for the compound `c1ccc([C@H]([C@@H](c2ccccc2)N2CCCCC2)N2CCCCC2)cc1` is 0.05 or above.
1

Confirm if fraction unbound at 5 h reported for the compound `COc1ccc(CCN2C(=O)N(NS(C)(=O)=O)C[C@@H]2c2ccc(OC)cc2)cc1` is 0.05 or above.
1

Confirm if fraction unbound at 5 h reported for the compound `Cc1ccc(S(=O)(=O)Nc2c(C(=O)N[C@@H](C)C(C)(C)C)c(C)nn2C2CCOCC2)cc1` is 0.05 or above.
1

Confirm if fraction unbound at 5 h reported for the compound `CCCn1c(=O)[nH]c(=O)c2[nH]cnc21` is 0.05 or above.
1

Confirm if fraction unbound at 5 h reported for the compound `Cc1ccc2c(c1)c(S(=O)(=O)c1ccc(Cl)cc1)c(C)n2CC(=O)O` is 0.05 or above.
-1

Confirm if fraction unbound at 5 h reported for the compound `O=C(CN1CCN(CCC2CCOCC2)CC1)NC12CC3CC(CC(C3)C1)C2` is 0.05 or above.
1

Confirm if fraction unbound at 5 h reported for the compound `N#Cc1ccc2ccc(=O)n(CCN3CC[C@H](NCc4cc5c(cn4)OCCO5)[C@H](O)C3)c2c1` is 0.05 or above.
1

Confirm if fraction unbound at 5 h reported for the compound `O=C(c1c2ccccc2cc2ccccc12)N1CCC(N2CCC[C@@H](C(=O)N3CCOCC3)C2)CC1` is 0.05 or above.
1

Confirm if fraction unbound at 5 h reported for the compound `Cc1n[nH]c(C)c1Cc1sc2c(c1C(=O)N1C[C@H](O)CO1)c(=O)n(C)c(=O)n2CC(C)C` is 0.05 or above.
1

Confirm if fraction unbound at 5 h reported for the compound `OC[C@H]1C[C@@H](n2nnc3c(N[C@@H]4C[C@H]4c4ccc(F)c(F)c4)nc(SCCC(F)(F)F)nc32)[C@H](O)[C@@H]1O` is 0.05 or above.
-1

Confirm if fraction unbound at 5 h reported for the compound `Cc1cn([C@H]2CCCN([C@H](CC(C)(C)C)c3ccc(C(=O)O)c(Oc4cccc(Br)c4)c3)C2)c(=O)[nH]c1=O` is 0.05 or above.
-1

====

Give log10 hepatocyte CLint for every item shown.
PROTOCOL_SUMMARY: in vitro
SETUP_CONDITIONS: human, hepatocytes
Please interpret these as log10 of hepatocyte CLint where hepatocyte CLint is in µL/min/1e6 cells.

The value of log10 hepatocyte CLint measured for the compound C[C@]12CC[C@H](O)CC1=CCC1C2CC[C@]2(C)C(n3cnc4ccccc43)=CCC12 (some centres undefined) turned out to be 1.54

The value of log10 hepatocyte CLint measured for the compound `Cn1cnc2c(-c3ccc(C4(N)CCC4)cc3)c(-c3ccccc3)ccc21` turned out to be 0.52

The value of log10 hepatocyte CLint measured for the compound `COc1ccccc1-c1csc(-n2ncc(C#N)c2N)n1` turned out to be 1.74

The value of log10 hepatocyte CLint measured for the compound COC(=O)C1=C(C)NC(C)=C(C(=O)OC(C)C)[C@@H]1c1cccc2nonc12 [(R)-ISRADIPINE] turned out to be 2.10

The value of log10 hepatocyte CLint measured for the compound `O=C1CC2(CCCC2)CC(=O)N1CCCCN1CCN(c2ncccn2)CC1` turned out to be 1.59

The value of log10 hepatocyte CLint measured for the compound `Cc1nn(C2CCCCC2)c(N)c1-c1ccccc1` turned out to be 1.14

The value of log10 hepatocyte CLint measured for the compound NC(=O)NC(=O)C(Nc1ccc2c(c1)CCC2)c1ccccc1 (centres undefined) turned out to be 1.14

The value of log10 hepatocyte CLint measured for the compound `COc1cc(C2CCN(C(C)=O)CC2)ccc1Nc1ncc(Cl)c(-c2cnc3ccccn23)n1` turned out to be 1.38

The value of log10 hepatocyte CLint measured for the compound `CCc1c(C(=O)C(N)=O)c2c(OCC(=O)OC)cccc2n1Cc1ccccc1` turned out to be 1.70

The value of log10 hepatocyte CLint measured for the compound `CN(C)N(C)C(=O)[C@@]1(Cc2ccccc2)CCCN(C(=O)[C@@H](Cc2c[nH]c3ccccc23)NC(=O)C(C)(C)N)C1` turned out to be 0.95

The value of log10 hepatocyte CLint measured for the compound `O=C(Nc1nc2ccccc2s1)c1ccccc1` turned out to be 1.89

The value of log10 hepatocyte CLint measured for the compound `N=c1c(S(=O)(=O)c2ccc(Cl)cc2)cc2c(=O)n3ccccc3nc2n1C1CCCC1` turned out to be 1.55

The value of log10 hepatocyte CLint measured for the compound `CC(CO)(CO)Nc1nc(SCc2cccc(F)c2F)nc2nc(N)sc12` turned out to be 0.69

The value of log10 hepatocyte CLint measured for the compound `N#Cc1cccc(-c2cccc(C(=O)O)c2)c1` turned out to be 0.91

The value of log10 hepatocyte CLint measured for the compound `O=S(=O)(Nc1ccc(C(F)(F)F)cc1)c1ccc2sc(CO)nc2c1` turned out to be 1.19
